READOUT LABEL: melting point

Known melting point results, listed for orientation:
[ask] Name the reported melting point value associated with the compound C(=Cc1nc2ccccc2s1)c1ccc2cc(N(c3ccccc3)c3ccccc3)ccc2c1
[reply] 181 to 185 °C

[ask] Please answer likewise for CCCCCCCCCCCCCCc1ccc2c(c1)C(=O)C(=O)N2
[reply] 87 to 89 °C

---
[ask] Name the reported melting point value associated with the compound CCOC(=O)CCc1ccc(SCc2coc(/C=C/c3ccccc3)n2)cc1
[reply] 77 to 78 °C

[ask] Please answer likewise for COC=C(C#C[Si](C)(C)C)C(=O)OC
[reply] 70 to 72 °C

[ask] Please answer likewise for COC1CCC2C3CCC4CC(C)(O)CCC4(C)C3CCC12C (configuration not stated)
[reply] 151 to 154 °C

[ask] Please answer likewise for Cc1cc(OC(F)(F)C(F)Cl)nc(N)n1 (configuration not stated)
[reply] 73 to 74 °C

[ask] Please answer likewise for CN(C(=S)SC(C[N+](=O)[O-])c1ccccc1)c1ccccc1 (configuration not stated)
[reply] 111 to 116 °C

[ask] Please answer likewise for COC(=O)CCCN1CCC(CNC(=O)[C@@H]2CCCN2S(=O)(=O)c2ccc(Cl)c(COc3cccc4c(-n5ccnc5)cc(C)nc34)c2Cl)CC1
[reply] 98 °C

[ask] Please answer likewise for CN(C)C(=O)Cc1ccccc1Nc1c(F)c(F)cc(F)c1F
[reply] 109 to 110 °C

[ask] Please answer likewise for Cc1cc(C2=CC(c3cc(Cl)cc(Cl)c3)(C(F)(F)F)OC2)ccc1C(=O)OC(C)(C)C (configuration not stated)
[reply] 160 to 162 °C

[ask] Please answer likewise for Cc1cc(NC(=O)CN(CC(=O)O)CC(=O)O)ccc1Br
[reply] 206 to 209 °C

[ask] Please answer likewise for COc1ccc(-c2nn(CC=Cc3ccccc3)c(=O)cc2-c2ccccc2)cc1
[reply] 136 to 137 °C

[ask] Please answer likewise for O=C(c1c(F)cccc1F)N1CNCN(c2ccc(Cl)cc2)C1=O
[reply] 167 to 168 °C

[ask] Please answer likewise for Cc1ccnc(C(=O)c2[nH]c3cc(F)ccc3c2CC(=O)O)c1
[reply] 208 °C

[ask] Please answer likewise for O=C(O)CCCCCc1cccnc1
[reply] 100 to 105 °C

[ask] Please answer likewise for COc1ccc2c(c1)-c1noc(O)c1CC2
[reply] 135 to 138 °C

[ask] Please answer likewise for CC(=O)NCCC(C)c1ccc(-c2ccc(Cl)cc2)cc1 (configuration not stated)
[reply] 118 to 120 °C

[ask] Please answer likewise for O=C1NCC(c2c[nH]c3ccccc23)C1c1cn2c3c(cccc13)CCC2 (configuration not stated)
[reply] 241 to 243 °C

[ask] Please answer likewise for COC(=O)c1ccccc1NS(=O)(=O)NC(C)C
[reply] 106 to 108 °C

[ask] Please answer likewise for COC(=O)COc1ccc(OC/C=C(/c2ccc(Cl)cc2)c2ccc(I)cc2)cc1C
[reply] 89 to 92 °C

[ask] Please answer likewise for Cc1nc(=O)[nH]c2c(-c3ccccc3)[nH]c(C)c12
[reply] 290 to 294 °C

[ask] Please answer likewise for CCOC(=O)c1cc2ccc(CBr)cc2o1
[reply] 95 to 102 °C

###

Reported values of melting point for individual entries

Known melting point results, listed for orientation:
[ask] Name the reported melting point value associated with the compound O=C1CCN(CC(c2ccccc2)c2ccccc2)CC1
[reply] 140 to 142 °C

[ask] Please answer likewise for CCOC(=O)CNC(=O)CN1CCCC1=O
[reply] 63 to 64 °C

[ask] Please answer likewise for CNC(=O)N(C)C(=O)Nc1nc(C(Cl)(Cl)Cl)ns1
[reply] 94 °C

[ask] Please answer likewise for O=C(Nc1ccc(OCc2ccncc2)c2ccccc12)c1cc(F)cc(N2CCOCC2)c1
[reply] 157 to 159 °C

[ask] Please answer likewise for Cc1nc(NC(=O)NS(=O)(=O)c2ccccc2C(=O)O)nc2c1CCC2
[reply] 183 to 184 °C

---
[ask] Name the reported melting point value associated with the compound Cc1nc(CC#N)c2c(OCc3ccccc3)cccn12
[reply] 118 to 119 °C

[ask] Please answer likewise for COc1cc2c(Nc3ccc(Br)cc3F)ncnc2cc1OCCCS(C)(=O)=O
[reply] > 250 °C

[ask] Please answer likewise for O=C(CCNCC(O)COc1cccc2occc12)NCc1ccccc1 (stereo not given)
[reply] 109 to 110 °C

[ask] Please answer likewise for COc1ccc2c(C=O)cccc2c1C(F)(F)F
[reply] 92 to 94 °C

[ask] Please answer likewise for COc1ccc2ccc(C(=O)NC(C)C)c(OC(C)C)c2c1
[reply] 62 to 64 °C

###

READOUT LABEL: melting point

Known melting point results, listed for orientation:
[ask] Name the reported melting point value associated with the compound O=C(c1ccccc1)N1CC2COCC2C1 (stereo not given)
[reply] 47 to 48 °C

[ask] Please answer likewise for Nc1cccc(CN2CCC(NC(=O)NC(=O)c3ccccc3)CC2)c1
[reply] 194 to 195 °C

[ask] Please answer likewise for CSc1nc(NC(=O)NS(=O)(=O)c2ccccc2C(=O)OC(C)C)nn1C
[reply] 192 to 194 °C

---
[ask] Name the reported melting point value associated with the compound COC(=O)Cc1ccc(S(C)(=O)=O)c(Cl)c1
[reply] 54 to 57 °C

[ask] Please answer likewise for CCCCc1cc(C#N)sc1-c1ccc2c(c1)C(C)(C)OC(=S)N2
[reply] 174 to 175 °C

[ask] Please answer likewise for COc1ccc(NC(=N)c2ccc(SC)cc2)cc1
[reply] 166 to 168 °C

[ask] Please answer likewise for CCOC(=O)C(C=O)Cc1cnc(C)c(C)c1 (stereo not given)
[reply] 148 to 149 °C

[ask] Please answer likewise for Cc1cccc2c1oc1c(NC(=O)c3ccccn3)n(C)nc12
[reply] 167 to 168 °C

[ask] Please answer likewise for Cc1ccn2c(=O)c(CCN3CCN(c4ccc(Cl)cc4)CC3)c(C)nc2c1
[reply] 156 to 157 °C

[ask] Please answer likewise for O=C1CCCN1c1cccc(-c2ccc(CC34CCCN3C(=O)N(c3cc(Cl)cc(Cl)c3)C4=O)cc2)c1 (stereo not given)
[reply] 86.5 °C

###

READOUT LABEL: melting point

Known melting point results, listed for orientation:
[ask] Name the reported melting point value associated with the molecule CCOC(=O)c1cncn1-c1ccc(F)cc1
[reply] 114 to 115 °C

[ask] Please answer likewise for CCOC(=O)c1c(C)c(C(=O)O)c(C)n1C
[reply] 197 to 198 °C

[ask] Please answer likewise for Cc1ccc2c3c(c(=O)oc2c1)CN(CCN1CC2CCC(CC2)C1)CC3
[reply] 155 to 157 °C

[ask] Please answer likewise for COC(=O)Oc1ccc([N+](=O)[O-])cc1
[reply] 111 to 112 °C

[ask] Please answer likewise for C[C@H](NC(=O)Cc1ccccc1)C(=O)N[C@@H]1C(=O)Nc2ccccc2O[C@@H]1c1ccccc1
[reply] 122 to 136 °C

---
[ask] Name the reported melting point value associated with the molecule NS(=O)(=O)c1ccc2c(c1)C(=O)c1ccccc1C2=O
[reply] 258 to 261 °C

###

READOUT LABEL: melting point

Known melting point results, listed for orientation:
[ask] Name the reported melting point value associated with the compound CCOC(=O)c1cn(Cc2ccc(OCc3csc(-c4ccccc4)n3)cc2)nc1-c1cccs1
[reply] 94 to 95 °C

[ask] Please answer likewise for CCCCN(Cc1ccc(-c2ccccc2-c2nc(=O)o[nH]2)cc1)c1ncncc1C(=O)OCC
[reply] 65 to 69 °C

[ask] Please answer likewise for CCCc1cc2ccccn2c1C(=O)c1ccc(O)c(Cl)c1
[reply] 165 °C

[ask] Please answer likewise for Cc1nc(-n2ccc(C(F)(F)F)cc2=O)sc1C(=O)NCc1cccnc1
[reply] 172 to 173 °C

[ask] Please answer likewise for CSc1ncc2cc(-c3c(Cl)cccc3Cl)c(=NC(C)=O)n(C)c2n1
[reply] 229 to 231 °C

---
[ask] Name the reported melting point value associated with the compound CC(O)CCc1cc(C(C)(C)C)c(O)c(C(C)(C)C)c1 (stereo unspecified)
[reply] 62 to 67 °C

[ask] Please answer likewise for COC(=O)C(=O)Cc1nc([N+](=O)[O-])cn1C
[reply] 186 °C

[ask] Please answer likewise for CCOC(=O)c1ccc(NC(=O)NCCN2CCN=C2c2ccccn2)cc1
[reply] 95 to 97 °C

[ask] Please answer likewise for O=c1ncc(Cl)cn1CC(O)CCl (stereo unspecified)
[reply] 159 to 162 °C

[ask] Please answer likewise for N[C@@H](C1CCCCC1)C(O)(Cc1ccccc1)Cc1ccccc1
[reply] 80 to 81 °C

###

Reported values of melting point for individual entries

Known melting point results, listed for orientation:
[ask] Name the reported melting point value associated with the compound Nc1cc(I)cnc1Cl
[reply] 129 °C

[ask] Please answer likewise for COC(=O)N1CC(=O)Nc2cccc(F)c21
[reply] 170 to 172 °C

[ask] Please answer likewise for COc1cc(OC)cc(OC(=O)N2CCCC2=O)c1
[reply] 80 to 81 °C

[ask] Please answer likewise for O=C1N(Cc2ncccn2)c2ccccc2C12COc1cc3c(cc12)OCCO3 (stereo unspecified)
[reply] 210 to 212 °C

[ask] Please answer likewise for Clc1ccc(Oc2ccccc2Oc2ccc(Cl)cn2)nc1
[reply] 82 to 84 °C

Now consider the entry below.
[ask] Name the reported melting point value associated with the compound Cc1cc(OC(=O)N(C)C)nc(C(Cl)(Cl)Cl)n1
[reply] 83.5 to 84.5 °C
